Experiment: protein stability index of a GFP-peptide fusion (GPS, HEK-293T) (PSI 1-6); higher = more stable;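 further: 24-mer peptide tiles fused after GFP, lentivirally expressed, FACS-sorted into six equal bins by GFP/DsRed ratio, decoded by Illumina sequencing, PSI is the read-weighted mean bin number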
Details: treatment: MLN4924 1 uM, 8 h; c terminus: a fixed tail appended
Listed sequences paired with reported protein stability index
test-readout: protein stability index

| sequence-input | value |
| --- | --- |
| LPELLLGALPVGSNLTSNLASLVS [RETREG3] | 2.17 |
| CRGHTLERSVFSERTEESSAVQYF [CARM1] | 2.92 |
| TSECPSDKDKSPESHKAKNESWIK [C10orf62] | 4.18 |
| PANSETSDLTLYLVVAVAAVSCVF [PCDHGA10] | 2.59 |
| QALSNVPPLRNYFLEEDNYKNIKR [USP39] | 4.18 |
| VLVILISIVIFCLETLPEFRDEKD [KCNA3] | 2.25 |
| IVWSLAFGSSVPEKQSRCVNIEWH [WSB1] | 2.93 |

Every entry's value here was drawn from the supplement of paper PMC10567573.
